TARGET_SYSTEM: PLK1 (Homo sapiens)
Construct: The PLK1 ORF was cloned into pSSP1 such that the resulting PLK1 translation product would have a 19 amino acid N-terminal tag; made in house; host or cells: Sf9 insect cells (baculovirus)
ASSAY_NAME: PLK1 kinase assay (CDC25C phosphorylation, [γ-32P]-ATP)
Type: biochemical
Experimental: PLK1 kinase activity was assayed using human CDC25C phosphatase as a substrate. […] The reaction mixture was incubated at 30° C. for 1 h, then stopped with 75 mM aq orthophosphoric acid, transferred onto a 96-well P81 filter plate (Whatman), dried, and the extent of CDC25C phosphorylation was assessed by scintillation counting using a Packard TopCount plate reader. […]
METRIC_NAME: PLK1 inhibition, result in words

[[record]]
compound = "O=c1c(O)c(-c2ccccc2)oc2cc(O)cc(O)c12 [gangolin]"
recorded_measurement = "inactivity"

[[record]]
compound = "O=c1c(-c2ccc(O)cc2)coc2cc(O)ccc12 [daidzein]"
recorded_measurement = "inactivity"


---

TARGET_SYSTEM: PLK1 (Homo sapiens, UniProt P53350)
Construct: The PLK1 ORF was cloned into pSSP1 such that the resulting PLK1 translation product would have a 19 amino acid N-terminal tag; made in house; host or cells: Sf9 insect cells (baculovirus)
Sequence (P53350 whole entry): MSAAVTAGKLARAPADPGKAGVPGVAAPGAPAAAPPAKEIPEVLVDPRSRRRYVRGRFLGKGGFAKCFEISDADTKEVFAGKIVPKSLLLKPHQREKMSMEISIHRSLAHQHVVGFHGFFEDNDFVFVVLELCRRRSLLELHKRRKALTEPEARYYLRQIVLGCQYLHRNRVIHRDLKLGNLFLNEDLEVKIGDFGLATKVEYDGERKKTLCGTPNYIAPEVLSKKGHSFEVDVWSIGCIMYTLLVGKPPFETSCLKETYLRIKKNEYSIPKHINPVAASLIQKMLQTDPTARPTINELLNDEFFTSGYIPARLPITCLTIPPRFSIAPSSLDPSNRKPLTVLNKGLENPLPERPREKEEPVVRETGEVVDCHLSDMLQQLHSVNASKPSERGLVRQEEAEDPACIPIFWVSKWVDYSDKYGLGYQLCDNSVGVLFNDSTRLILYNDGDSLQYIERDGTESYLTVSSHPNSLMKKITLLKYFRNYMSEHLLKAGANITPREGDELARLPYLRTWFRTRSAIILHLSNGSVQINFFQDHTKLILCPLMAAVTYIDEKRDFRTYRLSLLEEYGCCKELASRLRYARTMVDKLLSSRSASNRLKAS
ASSAY_NAME: PLK1 kinase assay (CDC25C phosphorylation, [γ-32P]-ATP)
Type: biochemical
ASSAY_SETUP: Kinase inhibition, flavonoid compounds; read-out: Plk1 IC50
pIC50: −log10 of the molar value.
Would you kindly list pIC50 for each of these compounds?

[[record]]
structure_as_smiles = "O=c1c(O)c(-c2cc(O)c(O)c(O)c2)oc2cc(O)cc(O)c12"
metric_name = "pIC50"
recorded_measurement = "< 4.00"

[[record]]
structure_as_smiles = "O=c1cc(-c2ccc(O)c(O)c2)oc2cc(O)cc(O)c12"
metric_name = "pIC50"
recorded_measurement = "< 4.00"


Inquiry: Record lookup: for PLK1 (Homo sapiens, UniProt P53350), what pIC50 belongs to O=c1c(O)c(-c2ccc(O)cc2)oc2cc(O)cc(O)c12 ?
Reply text: < 4.00
